The origin of these recorded values is patent US10738056B2.

Biological target: Human cGAS amino acids 155-522 (Homo sapiens (Human), UniProt Q8N884)
Sequence (Q8N884 157-522): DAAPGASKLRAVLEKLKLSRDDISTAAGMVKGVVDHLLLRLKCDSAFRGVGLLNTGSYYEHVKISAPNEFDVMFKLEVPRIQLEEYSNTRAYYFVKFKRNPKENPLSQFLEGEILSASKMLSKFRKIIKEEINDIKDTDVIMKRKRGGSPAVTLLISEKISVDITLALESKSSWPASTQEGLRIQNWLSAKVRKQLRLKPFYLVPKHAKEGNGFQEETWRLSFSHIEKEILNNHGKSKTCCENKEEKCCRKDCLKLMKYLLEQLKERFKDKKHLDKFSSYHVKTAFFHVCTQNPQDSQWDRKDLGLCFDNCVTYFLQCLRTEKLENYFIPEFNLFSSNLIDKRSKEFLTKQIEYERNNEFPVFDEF
Assay: cGAS biochemical activity assay (ATP remaining, Kinase-Glo Max luminescence)
Conditions: human cGAS 155-522, ATP remaining (Kinase-Glo Max); read-out: cGAS IC50
pIC50: −log10 of the molar value.
attribute measured: pIC50

Cc1[nH]c2c(-c3ccccc3)c(C(F)(F)F)nn2c(=O)c1N1Cc2ccc(N)cc2C1=O | 3.60 to 4.70
Cc1cc(NC(=O)c2c(C)[nH]c3c(-c4ccccc4)c(C(F)(F)F)nn3c2=O)n(C)n1 | 3.60 to 4.70
COc1cccc2nc(-c3c(C)[nH]c4c(-c5ccccc5)c(C(F)(F)F)nn4c3=O)n(C)c12 | 3.60 to 4.70
COc1cccc2oc(-c3c(N4CCOCC4)[nH]c4c(-c5ccccc5)c(C(F)(F)F)nn4c3=O)nc12 | > 4.70
COc1cccc2sc(-c3c(C)[nH]c4c(-c5ccccc5)c(C(F)(F)F)nn4c3=O)nc12 | > 4.70

For the next question, use this molecule.
Consider the molecule COCC1CCCN1c1nnc(-c2c(C)[nH]c3c(-c4ccccc4)c(C(F)(F)F)nn3c2=O)o1 (stereo not shown) and give its measured pIC50.
3.60 to 4.70

###

Target: Human cGAS amino acids 155-522 (Homo sapiens (Human), UniProt Q8N884)
Experiment: cGAS biochemical activity assay (ATP remaining, Kinase-Glo Max luminescence)
Conditions: human cGAS 155-522, ATP remaining (Kinase-Glo Max); read-out: cGAS IC50
attribute measured: IC50

Cc1[nH]c2c(-c3ccccc3)c(C(F)(F)F)nn2c(=O)c1C(=O)NC1CCCCC1 | 20 to 250 µM

Consider the compound Cc1[nH]c2c(-c3ccccc3)c(C(F)(F)F)nn2c(=O)c1C(=O)N1CCN(c2ccccc2)CC1 and give its measured IC50.
> 250 µM

Cc1[nH]c2c(-c3ccccc3)c(C(F)(F)F)nn2c(=O)c1-c1nc2c(C)cccc2o1 ?
< 20 µM

###

Reported pIC50 by item:
Molecular target: Human cGAS amino acids 155-522 (Homo sapiens (Human))
Assay: cGAS biochemical activity assay (ATP remaining, Kinase-Glo Max luminescence)
Settings: human cGAS 155-522, ATP remaining (Kinase-Glo Max); read-out: cGAS IC50
pIC50: −log10 of the molar value.

Record excerpt, results attached:
COCCOCc1[nH]c2c(-c3ccccc3)c(C(F)(F)F)nn2c(=O)c1-c1nc2c(OC)cccc2o1 | > 4.70
Cc1[nH]c2c(-c3ccccc3)c(C(F)(F)F)nn2c(=O)c1-c1nc2ccc(N)cc2o1 | > 4.70
Cc1[nH]c2c(-c3ccccc3)c(C(F)(F)F)nn2c(=O)c1C(=O)Nc1ccccc1N1CCCC1 | 3.60 to 4.70

Consider the compound COc1cccc2oc(-c3c(C(F)(F)F)[nH]c4c(-c5ccccc5)c(C#N)nn4c3=O)nc12 and give its measured pIC50.
> 4.70

Cc1[nH]c2c(C3CC3)c(C(F)(F)F)nn2c(=O)c1Cc1ccccc1 ?
< 3.60

Cc1[nH]c2c(-c3ccccc3)c(C(F)(F)F)nn2c(=O)c1CC(=O)Nc1ccccc1N ?
3.60 to 4.70

COc1ccnc(NC(=O)c2c(C)[nH]c3c(-c4ccccc4)c(C)nn3c2=O)c1 ?
> 4.70

COc1c(Cl)ccc2oc(-c3c(C)[nH]c4c(-c5ccccc5)c(C(F)(F)F)nn4c3=O)nc12 ?
> 4.70

COc1cccc2c1nc(-c1c(C)[nH]c3c(-c4ccccc4)c(C(F)(F)F)nn3c1=O)n2C ?
3.60 to 4.70

Cc1[nH]c2c(-c3ccccc3)c(C(F)(F)F)nn2c(=O)c1C(=O)Nc1cccnc1S(C)(=O)=O ?
> 4.70

Cc1[nH]c2c(-c3ccccc3)c(C(F)(F)F)nn2c(=O)c1C(=O)Nc1cnn(C)c1 ?
> 4.70

COc1cccc2oc(-c3c(C)[nH]c4c(-c5ccccc5)c(C)nn4c3=O)nc12 ?
> 4.70
